test system: serotonin release, raphe; assay: Release of biogenic amines from brain tissue: serotonin, raphe; type: in vivo, Wistar rats; conditions: 0.25 mg/kg s.c.
Catalogue of molecules with associated Release of serotonin, raphe

molecule	Release of serotonin, raphe
CCCNC(CCC)Cc1c[nH]c2ccccc12.Cl (stereo not drawn)	0.481 ± 0.05 nmol/g tissue, for 20 min
CCCNC(CCC)Cc1ccc2ccccc2c1.Cl (stereo not drawn)	0.958 ± 0.03 nmol/g tissue, for 20 min
CCCNC(CCC)Cc1ccccc1 (racemic) [PPAP, 1-phenyl-2-propylaminopentane, reference compound]	0.416 ± 0.03 nmol/g tissue, for 20 min
CCCNC(CCC)Cc1cccc2ccccc12 (stereo not drawn)	0.425 ± 0.02 nmol/g tissue, for 20 min
CCCNC(CCC)Cc1ccc2c(c1)OCO2.Cl (stereo not drawn)	0.414 ± 0.01 nmol/g tissue, for 20 min
CCCNC(CCC)Cc1cccc2c1OCO2.Cl (stereo not drawn)	1.031 ± 0.03 nmol/g tissue, for 20 min

---

// reported activity at 24 h, 10 µM per item
test: Toxicity screening using primary cultured hepatocyte (LDH release); assay type: cell-based, rat; conditions: rat, primary hepatocytes; 10 μM, 24 hr; control 0.5% saline or 0.5% DMSO; read-out: Percent control of LDH release
Counter-ions that a name gives are not always drawn.

molecule	activity at 24 h, 10 µM
CCCNC(CCC)Cc1cc2ccccc2o1.Cl (centres unmarked) [Compound No. 25, Hydrochloride]	90.3%
CCCC(Cc1ccc2ccccc2c1)NCC(C)(C)C (centres unmarked)	108%
CCCNC(CCC)Cc1ccc2c(c1)OCCO2 (centres unmarked) [Compound No. 35, Hydrochloride]	103%
CCCNC(CCC)Cc1cccc2[nH]ccc12.Cl (centres unmarked) [Compound No. 21, Hydrochloride]	110%
CCCC(Cc1ccc2c(c1)OCO2)NC(C)CC (centres unmarked)	99.5%
CCCNC(CCC)Cc1ccc2c(c1)OCO2.Cl (centres unmarked) [Compound No. 27, Hydrochloride]	115%
CCCNC(CCC)Cc1cc2ccccc2[nH]1 (centres unmarked) [Compound No. 19, Hydrochloride]	82.4%
CCCC(Cc1ccc2c(c1)OCO2)NC(CC)CC (centres unmarked)	102%

---

tested on: rats reduced learning ability by tetrabenazine; assay: Conditioned avoidance task in the shuttle box (tetrabenazine-treated rats); format: in vivo, rat; conditions: 5 mg/kg s.c.; tetrabenazine 1 mg/kg s.c.; significance and direction

molecule	Intersignal Reactions (IRs)
CCCC(Cc1ccc2c(c1)OCO2)NC(C)CC (stereo not drawn) [Compound No. 30]	* .dwnarw.
CCCC(Cc1ccc2c(c1)OCO2)Nc1ccc(C)cc1.Cl (stereo not drawn) [Compound No. 33]	* .dwnarw.
CCCNC(CCC)Cc1c[nH]c2ccccc12.Cl (stereo not drawn) [Compound No. 20]	* .dwnarw.

---

Here, each record is paired with measured Release of noradrenaline, locus coeruleus data.
tested on: noradrenaline release, locus coeruleus; experiment: Release of biogenic amines from brain tissue: noradrenaline, locus coeruleus; format: in vivo, Wistar rats; details: 1.00 mg/kg s.c.
reported.property: Release of noradrenaline, locus coeruleus

compound	observed.value
CCCNC(CC)Cc1ccc2ccccc2c1 (stereo not drawn) [Compound No. 10]	2.9 ± 0.15 nmol/g tissue, for 20 min
CCCC(Cc1ccc2ccccc2c1)NCC (stereo not drawn) [Compound No. 6]	3.1 ± 0.05 nmol/g tissue, for 20 min
CCCNC(CCC)Cc1c[nH]c2ccccc12.Cl (stereo not drawn) [Compound No. 20]	4.4 ± 0.25 nmol/g tissue, for 20 min
CCCNC(CCC)Cc1cccc2c1OCO2.Cl (stereo not drawn) [Compound No. 28]	3.7 ± 0.10 nmol/g tissue, for 20 min
CCCNC(CCC)Cc1cccc2ccccc12 (stereo not drawn) [Compound No. 5, 1-(1-Naphthyl)-2-propylaminopentane]	4.4 ± 0.50 nmol/g tissue, for 20 min
CCCNC(CCC)Cc1ccccc1 (racemic) [PPAP, 1-phenyl-2-propylaminopentane, reference compound]	4.6 ± 0.15 nmol/g tissue, for 20 min
